Assay: NCI Yeast Anticancer Drug Screen. Data for the rad50 strain (AID 155);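 also: 0% = growth of vehicle-only cultures of the same strain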
Conditions: S. cerevisiae rad50 strain growth inhibition; at 50.0 µM
Procedure: Growth inhibition of yeast strains with defined genetic alterations is measured as a screen for potential anti-cancer activity. Selected strains with alterations in DNA damage repair or cell cycle control were exposed to compounds and growth inhibition was measured relative to vehicle treated controls. The strain used in this assay is rad50
Compounds without any hit were thinned out: in the full panel of roughly 79,000, 15% have a hit. Active and inactive are the calls of the source. Rule as the data show it: active = growth inhibition above about 70%; inactive = the rest.
Entry note: the call must match one of T (active), F (inactive)

Would you please look over these solved cases?
CC1(C)CCCC12C=NCC2 (stereo not drawn) : F
S=C(N/N=C/c1ccccn1)N1CCCCC1 : T
O=C(O)c1c(Br)c(Br)c(Br)c(Br)c1-c1c2ccc(=O)cc-2oc2cc(O)ccc12 : T

Please state the recorded outcome for this compound: O=[N+]([O-])c1ccc(SCc2ccccc2)c2nonc12
T

Then what about the compound CC(=O)OC[C@@H](OC(C)=O)[C@H](OC(C)=O)c1cnn(-c2ccccc2)n1 ?
F

Then what about the compound CS(=O)(=O)OCCN(CCOS(C)(=O)=O)c1ccc(N=Nc2ccccc2)cc1 ?
F

Then what about the compound N#Cc1cn(-c2c3ccccc3nc3ccccc23)c(=O)[nH]c1=O ?
F

Then what about the compound CNc1cc(SC)nc(N)n1 ?
T

Then what about the compound O=C(CCCCN1CCN2c3ccccc3CCC2C1)c1ccccc1 (stereo not drawn) ?
T

Then what about the compound O=CC(O)CN1CCCC1 (stereo not drawn) ?
F

Then what about the compound COC(=O)[C@@H]1c2cc3c(c(O)c2[C@@H](OC)C[C@@]1(C)O)C(=O)c1c(O)cc2c(c1C3=O)OC1O[C@@]2(C)[C@H](O)[C@@H](N(C)C)[C@@H]1O ?
F

Then what about the compound CCCCCCCOC(=O)c1cc2cc(C(CC)C(CC)c3ccc(O)cc3)ccc2oc1=O (stereo not drawn) ?
T

Then what about the compound Nc1ccc2nc(Nc3ccc(Cl)c(Cl)c3)cnc2c1 ?
T

====

Assay: NCI Yeast Anticancer Drug Screen. Data for the sgs1 mgt1 strain (AID 161);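 also: 0% = growth of cultures given vehicle only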
Conditions: S. cerevisiae sgs1 mgt1 strain, at 50.0 µM, hits give high values
About 79,000 compounds went through this panel and 15% of them were active in at least one assay; those are over-represented in the sample as a whole.
Label Met when growth inhibition >= 90%; otherwise Not met.

Would you please look over these solved cases?
c1cc[c]([Sn]([S]c2cccc3cccnc23)([c]2ccccc2)[c]2ccccc2)cc1 : Met
Nc1ccccc1N=Nc1c(S(=O)(=O)O)cc2cc(S(=O)(=O)O)cc(O)c2c1O : Not met
CCNC(=O)COc1ccc(Cl)cc1Cl : Not met

Does CCc1cc(-c2ccco2)c(C#N)c(=S)n1C1OC(COC(C)=O)C(OC(C)=O)C(OC(C)=O)C1OC(C)=O (stereo unspecified) have a reported growth inhibition of at least 90%?
Not met

Then what about the compound CSC(=S)n1nc(-c2cccs2)c(N=Nc2ccccc2)c1C(F)(F)F ?
Met

Then what about the compound O=[N+]([O-])c1cc(C(F)(F)F)cc([N+](=O)[O-])c1CCl ?
Met

Then what about the compound O=c1oc2c/c(=C\c3ccccc3)c(=O)c3cccc1c3-2 ?
Not met

Then what about the compound CC(=O)OC1=CC2=CCC3C(CCC4(C)C(C(C)=O)CCC34)C2(C)CC1 (stereo unspecified) ?
Not met

====

Assay: NCI Yeast Anticancer Drug Screen. Data for the bub3 strain (AID 167)
Details: S. cerevisiae bub3 mutant strain, at 5.0 µM (retest, dose inferred, filed as 0.5), hits give high values
This is part of a sample that, as a whole, favours compounds with a hit. Of some 79,000 tested, about 15% had one in any assay.
Readings of growth inhibition for the listed compounds
Give a bare numeral; the unit % is implied.

Answered examples (2):
O=C1c2sccc2-c2cccc3cccc1c23 (tested in a mixture with another compound) : 29
C[N+]1(C)C/C(=C\C=C\c2ccccc2)C(=O)/C(=C/C=C/c2ccccc2)C1 : -2

Value lookup for growth inhibition; key = CCCC1c2ccc(O)cc2CC1c1ccc(O)cc1 (stereo not drawn)
-1

====

Experiment: NCI Yeast Anticancer Drug Screen. Data for the mec2-1 strain (AID 157)
Conditions: S. cerevisiae mec2-1 strain, at 50.0 µM (retest, dose inferred, filed as 5.0), hits give high values
This is part of a sample that, as a whole, favours compounds with a hit. Of some 79,000 tested, about 15% had one in any assay.
readout-name: growth inhibition (%)
Give a bare numeral; the unit % is implied.

Answered examples (5):
CCN(CC)c1c(C(=O)/C=C/c2ccc(OC)cc2)c(-c2ccccc2)nn(C)c1=O : 8
CC(=O)NNc1nc(C)c(C(=O)NNC(=O)C(=O)Nc2ccc(Cl)cc2Cl)s1 : 94
CCOSc1ccccc1 : 63
COc1cc(CCN=Cc2cc(Cl)cc(Cl)c2O)c([N+](=O)[O-])cc1OC : 55
CCCCCC(C)NCCOC(=O)c1ccccc1 (stereo not drawn) : 82

Value lookup for growth inhibition; key = O=C(C[N+]1(CCc2ccccc2)CCOCC1)c1ccc(-c2ccccc2)cc1
71

Then what about the molecule Cc1ccccc1NC(=S)Nc1ccccc1O ?
87

Then what about the molecule CCC(=S)N(C)O ?
98

====

Experiment: NCI Yeast Anticancer Drug Screen. Data for the bub3 strain (AID 167)
Settings: S. cerevisiae bub3 mutant strain, at 50.0 µM, hits give high values
This is part of a sample that, as a whole, favours compounds with a hit. Of some 79,000 tested, about 15% had one in any assay.
Label t when growth inhibition >= 90%; otherwise f.

Does COc1ccc(C2Oc3ccc(Cl)cc3C=C2[N+](=O)[O-])cc1OC (stereo not given) have a reported growth inhibition of at least 90%?
f

Then what about the molecule Nc1cc(F)cc(F)c1[N+](=O)[O-] ?
f

Then what about the molecule NC(CSSCC(N)=NCCCCCSC12CC3CC(CC(C3)C1)C2)=NCCCCCSC12CC3CC(CC(C3)C1)C2 ?
t

Then what about the molecule CN(Cc1cc(Cl)cc(Cl)c1O)Cc1c(O)ccc2ccccc12 ?
t

====

Test: NCI Yeast Anticancer Drug Screen. Data for the rad50 strain (AID 155);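 also: 0% = growth of vehicle-only cultures of the same strain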
Conditions: S. cerevisiae rad50 strain growth inhibition; at 50.0 µM; hits give high values
This is part of a sample that, as a whole, favours compounds with a hit. Of some 79,000 tested, about 15% had one in any assay.
Label true (1) when growth inhibition >= 70%; otherwise false (0).

ClC1=C(Cl)C(Cl)(C(Cl)(Cl)Cl)C(Cl)=C1Cl : true (1)
NC(=S)N/N=C/c1cn(CCCl)c2ccccc12 : false (0)

Does O=C(O)C1(Cc2ccc3c(c2)CCC3)Cc2ccccc2C1=O (configuration not stated) have a reported growth inhibition of at least 70%?
true (1)

Then what about the compound S=C(S)NCCN1CCNCC1 ?
false (0)

Then what about the compound CCN(CC)Cc1cc(Nc2c3ccccc3nc3c2[nH]c2ccccc23)ccc1O ?
true (1)

Then what about the compound CC1COC(=O)O1 (configuration not stated) ?
false (0)

Then what about the compound CCN(CC)CCNc1c(O)cc(C)c2sc3ccccc3c(=O)c12 ?
true (1)

Then what about the compound CN(C)c1ccc(C(c2cc3c(cc2O)OCO3)N2CCCC2)cc1 (configuration not stated) ?
true (1)

Then what about the compound CCCCCCCCCCCCNC(=O)C[n+]1cccc(C(N)=O)c1 ?
true (1)

Then what about the compound CN1CCN(CC(C(=O)O)(c2ccccc2)c2ccccc2)CC1 ?
false (0)

Then what about the compound CC(=O)C1CCC2C3CC(F)C4(O)CC(O)CCC4(C)C3CCC12C (configuration not stated) ?
false (0)

Then what about the compound O=C(O)c1nc2cc(C(F)(F)F)ccc2nc1Nc1ccc(Cl)c(Cl)c1 ?
true (1)

Then what about the compound Cc1ccc(NNC2=NC(=S)NC(=O)C2)cc1 ?
true (1)

Then what about the compound CC(=O)Nc1ccc(NC(=S)Nc2ccc(NC(C)=O)cc2)cc1 ?
true (1)

Then what about the compound [C](#[C][Sn]([c]1ccccc1)([c]1ccccc1)[c]1ccccc1)[Sn]([c]1ccccc1)([c]1ccccc1)[c]1ccccc1 ?
true (1)

Then what about the compound O=C(Nc1c(Cl)cccc1Cl)Oc1c(Br)cc(Br)cc1Br ?
true (1)

Then what about the compound CCC(Sc1ccccc1[N+](=O)[O-])[N+](=O)[O-] (configuration not stated) ?
true (1)

Then what about the compound O=[N+]([O-])c1cc([N+](=O)[O-])c2ccccc2c1O ?
true (1)

Then what about the compound C/C(=N\NC(=S)NC(C)(C)C)c1ccccn1 ?
true (1)

Then what about the compound O=C1OC2=C(CCc3nc(-c4ccccc4)sc32)C(N(c2ccccc2)c2ccccc2)C1(Cl)Cl (configuration not stated) ?
false (0)

Then what about the compound COc1nc(NC2OCC(O)C(O)C2O)c(Cl)c(=O)n1C (configuration not stated) ?
false (0)

Then what about the compound COc1ccc(CCC2(C)OCCC(C)O2)cc1 (configuration not stated) ?
false (0)

Then what about the compound NNC(=O)C(=O)N/N=C(/CCC(=O)NCCc1ccccc1)CC(=O)c1ccccc1 ?
false (0)

The origin of these recorded values is PubChem BioAssay (NCI).
